All figures here come from the Immune Epitope Database (IEDB).

- TARGET_ENTITY: HLA-A*03:01
- PROCEDURE_TEXT: IEDB peptide-MHC binding, purified MHC/competitive/radioactivity; filed as Kd, often an IC50 or EC50 that approximates it; bounds were set here for any values at or beyond the usual limits of such assays
- STUDY_CONDITIONS: source organism: Dengue virus 2 Jamaica/1409/1983
Kindly state Kd for each of the entries shown.
Answers are plain numbers, in nM.

chain=RTLAKEGIK recorded_metric=Kd readout_value=30
chain=LTSRATWAK recorded_metric=Kd readout_value=58.6
chain=GIFLFLMSGK recorded_metric=Kd readout_value=85.5
chain=MLINRFTMK recorded_metric=Kd readout_value=3.57
chain=QLKLNWFKK recorded_metric=Kd readout_value=134

API: the following record is the query input.
# lookup: AIFKLTYQNK on HLA-A*03:01, Kd = 41.4

====

- TARGET_ENTITY: HLA-A*02:12
- PROCEDURE_TEXT: IEDB peptide-MHC binding, purified MHC/direct/fluorescence; filed as Kd, often an IC50 or EC50 that approximates it; bounds were set here for any values at or beyond the usual limits of such assays
- STUDY_CONDITIONS: source organism: Yersinia enterocolitica subsp. enterocolitica 8081
RECORDED_METRIC: Kd

Kd recorded for this sequence, KSRQGDTKV , is ≥ 20 µM

====

- TARGET_ENTITY: HLA-A*26:03
- PROCEDURE_TEXT: IEDB peptide-MHC binding, purified MHC/competitive/fluorescence; filed as Kd, often an IC50 or EC50 that approximates it; bounds were set here for any values at or beyond the usual limits of such assays
- STUDY_CONDITIONS: source organism: Ehrlichia chaffeensis
pKd: −log10 of the molar value.
RECORDED_METRIC: pKd

pKd recorded for this sequence, RVYKNYDPR , is ≤ 4.70

====

- TARGET_ENTITY: HLA-B*53:01
- PROCEDURE_TEXT: IEDB peptide-MHC binding, purified MHC/competitive/radioactivity; filed as Kd, often an IC50 or EC50 that approximates it; bounds were set here for any values at or beyond the usual limits of such assays
- STUDY_CONDITIONS: source organism: Dengue virus 4 Dominica/814669/1981
RECORDED_METRIC: Kd

# lookup: LMYADDTAGW on HLA-B*53:01, Kd = 0.0461 µM

====

Kindly state pKd for each of the entries shown.
- TARGET_ENTITY: HLA-A*02:03
- PROCEDURE_TEXT: IEDB peptide-MHC binding, purified MHC/competitive/radioactivity; filed as Kd, often an IC50 or EC50 that approximates it; bounds were set here for any values at or beyond the usual limits of such assays
- STUDY_CONDITIONS: source organism: Dengue virus 4 Philippines/H241/1956
Give bare numbers, as −log10 of the molar value.

chain=KLALITVSGL target_entity=HLA-A*02:03 readout_value=8.14
chain=GLFGKGGVV target_entity=HLA-A*02:03 readout_value=8.00

API: the following record is the query input.
# lookup: ALWDVPSPA on HLA-A*02:03, pKd = 7.77

====

- TARGET_ENTITY: HLA-B*27:05
- PROCEDURE_TEXT: IEDB peptide-MHC binding, purified MHC/direct/fluorescence; filed as Kd, often an IC50 or EC50 that approximates it; bounds were set here for any values at or beyond the usual limits of such assays
- STUDY_CONDITIONS: source organism: Francisella tularensis subsp. holarctica LVS
RECORDED_METRIC: Kd

Kd recorded for this sequence, REIGDISYL , is ≥ 20 µM
